TEST_DETAILS: HSP distance Ra and relative energy difference RED of solvents versus plant wax HSP values
CONDITION_LABEL: HSP distance to upper plant wax HSP values (δD=16.0-16.3, δP 0-2.5, δH=0-3.1)
VALUE_KIND: Ra 1

Consider the following illustrative entries.
{"COMPOUND": "CCCCOC(=O)CC(C)O (stereo not shown) [butyl-3-hydroxybutyrate]", "Ra 1": 13.2}
{"COMPOUND": "CC1=CC=C(C(C)C)CC1", "Ra 1": 4.7}
{"COMPOUND": "CCCCOCCO", "Ra 1": 13.3}
{"COMPOUND": "C1CCCCC1", "Ra 1": 1.6}
{"COMPOUND": "OC1CCCCC1", "Ra 1": 14.4}
{"COMPOUND": "CC(=O)OCCC(C)C [Iso-Pentyl Acetate]", "Ra 1": 7.8}

I = O=C(OCc1ccccc1)c1ccccc1 [Benzyl Benzoate]
II = CCCCCCCCCCCC(=O)OC [methyl dodecanoate]
Qu. Please choose the item with the lower Ra 1 value from this pair: I and II Provide the label of your selected option as the answer.
Ans. II

I = CCCCOC(=O)c1ccccc1 [butyl benzoate]
II = CCCCCCCC/C=C\CCCCCCCC(=O)OC [Methyl Oleate]
Qu. Form: Entry with minimum Ra 1 (choose one): I / II Selection: enter the item's label.
Ans. II
(II: 5.9, I: 9.1)

P = CCCCCCCO
Q = CCCCCCCC(=O)OC [methyl octanoate]
R = O=C1OCCO1 [Ethylene Carbonate]
Qu. List the 3 entries from lowest Ra 1 to highest Ra 1 value. List the labels according to the requested ordering.
Ans. Q, P, R
(Q: 6.4, P: 13.0, R: 22.6)

P = CC1=CC[C@@H](C(C)(C)O)CC1
Q = CC1COC(=O)O1 (stereo not shown) [Propylene Carbonate]
R = C=C(C)[C@H]1CC=C(C)CC1
S = CCCCCCC
T = C=CC(C)(O)CCC=C(C)C (stereo not shown)
Qu. Could you please sort these 5 entries by Ra 1 from high to low? Please write the labels in the order that was asked for.
Ans. Q, P, T, R, S
(Q: 20.1, P: 12.1, T: 7.5, R: 5.2, S: 1.3)
